Assay overview: Cytotoxicity against human Raji cells assessed as cell viability at 100 molar ratio after 48 hrs by trypan blue assay
Format: cell-based
Condition context: read-out: Activity
Value kind: viability at 48 h, 100 molar ratio (%)
Use % as the unit, but write only the number.

Task: Returns the measured viability at 48 h, 100 molar ratio for the input compound. Input: CC1=C(/C=C/C(C)=C/C=C/C(C)=C/C(=O)O)C(C)(C)CCC1 [TRETINOIN]
Output: 40

###

Assay overview: Cytotoxicity against human Raji cells assessed as cell viability at 1000 molar ratio after 48 hrs by trypan blue assay
Format: cell-based
Condition context: read-out: Activity
Please go through the items and note down their viability at 48 h, 1000 molar ratio.
Use % as the unit, but write only the number.

Task: Returns the measured viability at 48 h, 1000 molar ratio for the input compound. Input: CC1=C(/C=C/C(C)=C/C=C/C(C)=C/C(=O)O)C(C)(C)CCC1 [TRETINOIN]
Output: 10

Task: Returns the measured viability at 48 h, 1000 molar ratio for the input compound. Input: COC(=O)C1=CO[C@@H](O[C@@H]2O[C@H](CO)[C@@H](O)[C@H](O)[C@H]2O)[C@H]2[C@@H]1C=C[C@@]2(O)CO [GARDENOSIDE]
Output: 80

Task: Returns the measured viability at 48 h, 1000 molar ratio for the input compound. Input: COC(=O)C1=CO[C@@H](O)[C@@H]2C(CO)=CC[C@H]12 [GENIPIN]
Output: 80

Task: Returns the measured viability at 48 h, 1000 molar ratio for the input compound. Input: COC(=O)C1=CO[C@@H](O[C@@H]2O[C@H](CO)[C@@H](O)[C@H](O)[C@H]2O)[C@@H]2C(CO)=CC[C@H]12 [GENIPOSIDE]
Output: 80

Task: Returns the measured viability at 48 h, 1000 molar ratio for the input compound. Input: O=CC1=CO[C@@H](O[C@@H]2O[C@H](CO)[C@@H](O)[C@H](O)[C@H]2O)[C@@H]2C(CO)=CC[C@H]12 [TARENNOSIDE]
Output: 80

Task: Returns the measured viability at 48 h, 1000 molar ratio for the input compound. Input: O=C(O)C1=CO[C@@H](O[C@@H]2O[C@H](CO)[C@@H](O)[C@H](O)[C@H]2O)[C@@H]2C(CO)=CC[C@H]12 [GENIPOSIDIC ACID]
Output: 80
